Test: Primary qHTS for inhibitors of nuclear receptor binding SET domain protein 2 (NSD2) in an RCH-ACV wild type WT cells (2C) (AID 1645877); also: nearly all actives have a fitted effect of over 70% in size
Details: RCH-ACV (leukaemia line) NSD2 WT (2C) viability, CellTiter-Glo, 72 h; series mostly up to 44.9 µM
Text: Assay Provider: Jonathan D. Licht, MD University of Florida College of Medicine, Gainesville, FL Mutations in epigenetic regulators are common in relapsed pediatric acute lymphoblastic leukemia (ALL). Here, we uncovered the mechanism underlying the relapse of ALL driven by an activating mutation of the NSD2 histone methyltransferase (p.E1099K). […] Correction of this mutation restored glucocorticoid sensitivity. […]
Inconclusive results are not listed. The source made the active and inactive calls. Calls follow the shape of the dose curve; as a rule, active = well fitted inhibition curve with a large enough effect; inconclusive = small, poorly fitted or top-dose-only effect; inactive = no such curve, though single readings can be large or run the other way.
Outcome codes: active, inactive

1) CCOC(=O)[C@H](CCc1ccccc1)N[C@H]1CCc2ccccc2N(CC(=O)O)C1=O; inactive
2) COc1ccc(C(=O)CC(=O)c2ccc(C(C)(C)C)cc2)cc1; inactive
3) NNC(=O)c1ccncc1; inactive
4) CN(C)CCc1c[nH]c2ccc(CS(=O)(=O)N3CCCC3)cc12; inactive
5) CCC(=O)O[C@]1(C(=O)SCF)[C@H](C)C[C@H]2[C@@H]3C[C@H](F)C4=CC(=O)C=C[C@]4(C)[C@@]3(F)[C@@H](O)C[C@@]21C; inactive
6) CC(=O)[C@H]1CC[C@H]2[C@@H]3CC=C4C[C@@H](O)CC[C@]4(C)[C@H]3CC[C@]12C; inactive
7) Nc1[nH]c(=O)ncc1F; inactive
8) CN(Cc1cc(Br)cc(Br)c1N)C1CCCCC1; inactive
9) O=C(O)c1cccnc1; inactive
10) O=C(O)C1CCCN(CCC=C(c2ccccc2)c2ccccc2)C1 (configuration not stated); inactive
11) CO[C@@H]1[C@@H](OC(N)=O)[C@@H](O)[C@H](Oc2ccc3c(O)c(NC(=O)c4ccc(O)c(CC=C(C)C)c4)c(=O)oc3c2C)OC1(C)C; inactive
12) CCCOc1ccc(C(=O)OCCN(CC)CC)cc1N; inactive
13) COc1ccccc1OCC(O)COC(N)=O (configuration not stated); inactive
14) N[C@@H](Cc1ccc(O)c(O)c1)C(=O)O; inactive
15) CC[C@H](NC(C)C)[C@H](O)c1ccc(O)c2[nH]c(=O)ccc12; inactive
16) Oc1c(Cl)cc(Cl)c2cccnc12; active
17) CNS(=O)(=O)Cc1ccc2[nH]cc(CCN(C)C)c2c1; inactive
18) OCc1ccc(-c2nn(Cc3ccccc3)c3ccccc23)o1; active
19) CN(CCOc1ccc(CC2SC(=O)NC2=O)cc1)c1ccccn1 (configuration not stated); inactive
20) NC(=O)c1ccc2[nH]ccc2c1; inactive
21) COc1cccc(N(C)C(=S)Oc2ccc3c(c2)CCCC3)n1; inactive
22) COc1c(N2CCNC(C)C2)c(F)cc2c(=O)c(C(=O)O)cn(C3CC3)c12 (configuration not stated); inactive
23) O=C(O)c1cc(=O)[nH]c(=O)[nH]1; inactive
24) COC(c1ccccc1)(c1ccccc1)[C@H](Oc1nc(C)cc(C)n1)C(=O)O; inactive
25) CCN[C@H]1C[C@H](C)S(=O)(=O)c2sc(S(N)(=O)=O)cc21; inactive
26) COc1cc(NS(=O)(=O)c2ccc(N)cc2)nc(OC)n1; inactive
27) C#CCN[C@@H]1CCc2ccccc21; inactive
28) S=P(N1CC1)(N1CC1)N1CC1; inactive
29) Cn1nnc2c(C(N)=O)ncn2c1=O; inactive
30) CC(C)NCC(O)c1ccc(NS(C)(=O)=O)cc1 (configuration not stated); inactive
31) CCn1cc(C(=O)O)c(=O)c2cc(F)c(N3CCNCC3)cc21; inactive
32) Cc1ncc([N+](=O)[O-])n1CCO; inactive
33) C[C@@H]1CN(c2c(F)c(N)c3c(=O)c(C(=O)O)cn(C4CC4)c3c2F)C[C@H](C)N1; inactive
34) CC(C(=O)O)c1ccc2c(c1)CC(=O)c1ccccc1S2 (configuration not stated); inactive
35) Cc1oc(=O)oc1CN1CCN(c2cc3c(cc2F)c(=O)c(C(=O)O)c2n3C(C)S2)CC1 (configuration not stated); inactive
36) O=c1cc(O)c(Cl)c[nH]1; inactive
37) CC(C)OC(=O)OCOP(=O)(CO[C@H](C)Cn1cnc2c(N)ncnc21)OCOC(=O)OC(C)C; inactive
38) CCn1cc(C(=O)O)c(=O)c2cc(F)c(N3CCN(C)CC3)cc21; inactive
39) NS(=O)(=O)c1cc2c(cc1Cl)NC(C(Cl)Cl)NS2(=O)=O (configuration not stated); inactive
40) Nc1nc(N)nc(-c2cc(Cl)ccc2Cl)n1; inactive
41) CCCc1nc(C)c2c(=O)[nH]c(-c3cc(S(=O)(=O)N4CCN(CC)CC4)ccc3OCC)nn12; inactive
42) CC(N)C12CC3CC(CC(C3)C1)C2 (configuration not stated); inactive
43) Cc1nnc(C(=O)NC(C)(C)c2nc(C(=O)NCc3ccc(F)cc3)c(O)c(=O)n2C)o1; inactive
44) CCN(C)C(=O)Oc1cccc([C@H](C)N(C)C)c1; inactive
45) CCOC(=O)c1ccc(C#Cc2ccc3c(c2)C(C)(C)CCS3)nc1; inactive
46) CNCC[C@H](Oc1cccc2ccccc12)c1cccs1; active
47) O=S(=O)(O)CCS; inactive
